# System: T47D
# assay.name: NCI tumour cell line growth inhibition, 48 h
Active and inactive are the calls of the source. No stated cut-off is given here; in the data, active = GI50 up to about 1.1 µM and inactive = higher.
readout.type: GI50

Would you please look over these solved cases?
IN: Record lookup: for T47D, what GI50 belongs to COc1ccc(/C=N/NC(=O)O)cc1 ?
OUT: > 100 µM (inactive)

IN: What would you report for C1=N\c2ccc(cc2)/N=C\c2ccccc2OCc2cccc(n2)COc2ccccc2/1 ?
OUT: > 100 µM (inactive)

IN: What would you report for CN1C(=O)C2(Cc3cn(C45CC67SSC(CO)(C(=O)N6C4Nc4ccccc45)N(C)C7=O)c4ccccc34)SSC1(CO)C(=O)N2C (stereo not drawn) ?
OUT: < 0.01 µM (active)

IN: What would you report for Cc1sc2nc3n(sc4nc5sc(C)c(C)c5c(=O)n43)c(=O)c2c1C ?
OUT: 0.935 µM (active)

IN: What would you report for N#Cc1cccc(N2C(=O)C3C4C=CC(C3C2=O)C2C(=O)N(c3cccc(C#N)c3)C(=O)C42)c1 (stereo not drawn) ?
OUT: > 31.6 µM (inactive)

More entries:
IN: Record lookup: for T47D, what GI50 belongs to CC(=O)OCC1OC(O/C=C(\CN=[N+]=[N-])C(C)=O)C(OC(C)=O)C(OC(C)=O)C1OC(C)=O (stereo not drawn) ?
OUT: 3.67 µM (inactive)

IN: What would you report for O=C1c2ccccc2C(=O)c2c1ccc(C(=O)O)c2-c1ccc2ccccc2c1 ?
OUT: 2.22 µM (inactive)

IN: What would you report for COC(=O)/C=C(\S/C(=C(/c1ccc(OC)cc1)n1cc(C(=O)OC)c(C(=O)OC)n1)c1ccc(OC)cc1)C(=O)OC ?
OUT: 3.02 µM (inactive)

----------
# System: NCI-H23
# assay.name: NCI tumour cell line growth inhibition, 48 h
The source made the active and inactive calls. Cut-off read from the data, not from the text of the source: active = GI50 up to about 1.1 µM and inactive = higher.
Recorded GI50 by entry

Would you please look over these solved cases?
IN: Given the compound CC(O)c1cc2c(s1)C(=O)c1c(C(C)O)csc1C2=O (stereo not given) , what is its reported GI50?
OUT: 0.0561 µM (active)

IN: What would you report for O=C(/C=C/c1cccc2ccccc12)c1ccccc1 ?
OUT: 13.7 µM (inactive)

More entries:
IN: Given the compound O=C(NCCCNCCCCNCCCNC(=O)c1cc(-c2ccccc2)nc2ccccc12)c1cc(-c2ccccc2)nc2ccccc12 , what is its reported GI50?
OUT: 3 µM (inactive)

IN: What would you report for CN(CC(=O)O)S(=O)(=O)c1ccc2ccccc2c1 ?
OUT: > 100 µM (inactive)

IN: What would you report for C[C@H](CCC(=O)O)[C@H]1CC[C@H]2[C@@H]3CC[C@@H]4C[C@H](O)CC[C@]4(C)[C@H]3C[C@H](O)[C@]12C [DEOXYCHOLIC ACID] ?
OUT: 39.7 µM (inactive)

IN: What would you report for CC(C)(C)c1ccc(-c2nnc(-c3cc(C#N)cc(-c4nnc(-c5ccc(C(C)(C)C)cc5)o4)c3)o2)cc1 ?
OUT: > 100 µM (inactive)

IN: What would you report for CCOC(=O)C(=O)CC(=O)C(Br)C(Br)c1ccc(Cl)cc1 (stereo not given) ?
OUT: 30.5 µM (inactive)

IN: What would you report for CCOC(=O)NC(=O)c1cn(CCN2CCN(C(=O)CNC(=O)CNC(=O)Cn3cc(C(=O)NC(=O)OCC)c(=O)[nH]c3=O)CC2)c(=O)[nH]c1=O ?
OUT: > 100 µM (inactive)

IN: What would you report for Cc1cccc2c(N)c3cccc(C(=O)NCCN4CCOCC4)c3nc12 ?
OUT: 0.33 µM (active)

IN: What would you report for O=C(Oc1c(Cl)cc(C2(c3cc(Cl)c(OC(=O)c4ccccc4)c(Cl)c3)CCCCC2)cc1Cl)c1ccccc1 ?
OUT: 10.4 µM (inactive)

----------
# Test system: HOP-62
# assay.name: NCI tumour cell line growth inhibition, 48 h
Activity calls are given as the source filed them. No stated cut-off is given here; in the data, active = GI50 up to about 1.1 µM and inactive = higher.
readout.type: GI50

IN: Given the compound CC(=O)Nc1ccccc1S(=O)(=O)c1ccccc1 , what is its reported GI50?
OUT: > 100 µM (inactive)

IN: What would you report for CC(C)(C)N/N=C(\C(=O)Nc1cccc(Cl)c1)C1C(=O)Nc2ccccc2[S+]1[O-] (stereo not drawn) ?
OUT: > 100 µM (inactive)

More entries:
IN: Given the compound O=C(NC(C(F)(F)F)(C(F)(F)F)P(=O)(Cc1ccccc1)Cc1ccccc1)C(C(F)(F)F)C(F)(F)F , what is its reported GI50?
OUT: 20.6 µM (inactive)

----------
Recorded GI50 by entry
# System: HCT-116
# assay.name: NCI tumour cell line growth inhibition, 48 h
Activity calls are given as the source filed them. No stated cut-off is given here; in the data, active = GI50 up to about 1.1 µM and inactive = higher.

IN: Given the compound N[C@H]1CCN(c2c(F)cc3c(=O)c(C(=O)O)cn4c3c2Oc2cc3c(ccc5ccccc53)cc2-4)C1 , what is its reported GI50?
OUT: 2.87 µM (inactive)

IN: What would you report for COC(=O)/C=C(\S/C(=C(/c1ccc(OC)cc1)n1cc(C(=O)OC)c(C(=O)OC)n1)c1ccc(OC)cc1)C(=O)OC ?
OUT: 9.98 µM (inactive)

IN: What would you report for OCC(O)C(O)C(O)c1nn(-c2ccc(F)cc2)c2nc3cc(Cl)c(Cl)cc3nc12 (stereo unspecified) ?
OUT: 24.5 µM (inactive)

IN: What would you report for C#Cc1cccc(N2C(=O)CCC2=O)c1 ?
OUT: 9.08 µM (inactive)

IN: What would you report for CN1CC[C@]23c4c5ccc(O)c4O[C@H]2C(O)CC[C@@]3(O)[C@H]1C5 (stereo partly specified) ?
OUT: > 100 µM (inactive)

IN: What would you report for CC(C)(C)CC(C)(C)c1ccc(O)c(C[N+](C)(C)[O-])c1 ?
OUT: 98.6 µM (inactive)

----------
# Test system: A549
# assay.name: NCI tumour cell line growth inhibition, 48 h
Active and inactive are the calls of the source. No stated cut-off is given here; in the data, active = GI50 up to about 1.1 µM and inactive = higher.
Please state which outcome applies, choosing from active, inactive

The examples below pair each entry with its known result.
IN: Field: outcome | Entry: COc1cc2[nH]c(=O)[nH]c2c2c(C)c[nH]c12
OUT: inactive

IN: What would you report for CC(O)c1cc2c(s1)C(=O)c1ccsc1C2=O (centres undefined) ?
OUT: active

IN: What would you report for O=C(O)COCC(=O)N(CCOCCN(Cc1ccccc1)C(=O)COCC(=O)O)Cc1ccccc1 ?
OUT: inactive

More entries:
IN: Field: outcome | Entry: COc1ccc2cc(CN3CCC(C4CCNCC4)CC3)ccc2c1
OUT: inactive

----------
# Test system: U-251
# assay.name: NCI tumour cell line growth inhibition, 48 h
Activity calls are given as the source filed them. Rule as the data show it: active = GI50 up to about 1.1 µM and inactive = higher.
Recorded GI50 by entry

IN: Given the compound Cc1ccc(OCC2=NN3C(=O)/C(=C\c4ccc([N+](=O)[O-])o4)SC3N2)cc1 (stereo not drawn) , what is its reported GI50?
OUT: 15.8 µM (inactive)

IN: What would you report for CCN(CC)CCNc1ccc2ncn3c4cc(O)ccc4c(=O)c1c23 ?
OUT: 1.53 µM (inactive)

IN: What would you report for Nc1ccc(Nc2c3ccccc3nc3ccccc23)cc1 ?
OUT: 4.4 µM (inactive)

----------
# Tested on: LXFL 529
# assay.name: NCI tumour cell line growth inhibition, 48 h
The source made the active and inactive calls. Rule as the data show it: active = GI50 up to about 1.1 µM and inactive = higher.
Please state which outcome applies, choosing from active, inactive

The examples below pair each entry with its known result.
IN: Field: outcome | Entry: O=c1/c(=C/c2ccccc2[N+](=O)[O-])sc2nnc(-c3cccnc3)n12
OUT: inactive

IN: What would you report for COC(=O)/C(C#N)=C1\NC(=O)c2ccccc21 ?
OUT: inactive

IN: What would you report for Nc1c(C(=O)N/N=C/c2ccccc2)sc(=S)n1-c1ccccc1 ?
OUT: inactive

IN: What would you report for Oc1cccc2cccnc12 ?
OUT: active

IN: What would you report for C=C(C)C1Cc2c(c3ccccc3n(C)c2=O)O1 (stereo unspecified) ?
OUT: inactive

More entries:
IN: Field: outcome | Entry: Cn1cnc([N+](=O)[O-])c1Sc1nc2ccccc2[nH]1
OUT: inactive

----------
# Test system: SF-268
# assay.name: NCI tumour cell line growth inhibition, 48 h
Active and inactive are the calls of the source. Rule as the data show it: active = GI50 up to about 1.1 µM and inactive = higher.
readout.type: GI50

Would you please look over these solved cases?
IN: Given the molecule O=C(O)CCCN1CCCCC1 , what is its reported GI50?
OUT: > 100 µM (inactive)

IN: What would you report for CC1(C)OC(=S)N(c2ccccc2)C12C=Cc1cc3ccccc3cc1O2 (configuration not stated) ?
OUT: > 100 µM (inactive)

Lab note: next molecule to report on.
IN: Given the molecule C[C@H]1CC[C@@H]2[C@@H](C)[C@H]3[C@H](C[C@H]4[C@@H]5CC=C6C[C@@H](O)CC[C@]6(C)[C@H]5CC[C@]34C)N2C1 , what is its reported GI50?
OUT: > 100 µM (inactive)

----------
# Test system: COLO 205
# assay.name: NCI tumour cell line growth inhibition, 48 h
The source made the active and inactive calls. Rule as the data show it: active = GI50 up to about 1.1 µM and inactive = higher.
Please state which outcome applies, choosing from 1 (yes) = active, 0 (no) = inactive

The examples below pair each entry with its known result.
IN: Field: outcome | Entry: O=C1CSC(c2cc3cc(Br)ccc3nc2Cl)N1c1ccc(F)c(Cl)c1 (centres undefined)
OUT: 0 (no)

IN: What would you report for COc1ccc(NC(=S)N/N=C\c2ccc(NC(C)=O)cc2)cc1 ?
OUT: 0 (no)

IN: What would you report for CCCCCCCCC(=O)NCCCNCCCNC(=O)CCCCCCCC ?
OUT: 0 (no)

IN: What would you report for N#CCCN(CCC#N)c1ccc(/C=C(/NC(=O)Nc2ccccc2Cl)NC(=O)c2cc([N+](=O)[O-])ccc2Cl)cc1 ?
OUT: 0 (no)

IN: What would you report for Cc1ccc(C)n1-c1ccccc1C1C=CN(C(=O)OC(C)(C)C)C=C1 ?
OUT: 0 (no)

IN: What would you report for Brc1ccc(C2C3CSc4ccccc4C3=NN2c2ccccc2)cc1 (centres undefined) ?
OUT: 0 (no)

More entries:
IN: Field: outcome | Entry: O=[N+]([O-])c1sc2ccc(Cl)cc2c1Nc1ccc(Cl)cc1
OUT: 0 (no)

IN: What would you report for Cc1cnc(Cl)nc1C(C#N)c1nc2ccccc2n1C (centres undefined) ?
OUT: 0 (no)

IN: What would you report for C=C1C(=O)C2=CC1CCC(=O)C1(C)CCC(OC(C)=O)C(C)(C)C1CC2O (centres undefined) ?
OUT: 1 (yes)

IN: What would you report for Cc1ccc(-c2nnc(SCC(=O)O)[nH]2)cc1 ?
OUT: 0 (no)

IN: What would you report for COc1ccc(/C=N/NC(=O)O)cc1 ?
OUT: 0 (no)
